# assayProcedure: qHTS of pediatric cancer cell lines to identify multiple opportunities for drug repurposing: Primary screen for OHS-50 cells (AID 1347103); note: nearly all actives have a fitted effect of over 40% in size
# reportedConditions: OHS-50 osteosarcoma viability, CellTiter-Glo luminescence, 48 h; series mostly up to 57.3 µM
Inconclusive results are not listed. Active and inactive are the calls of the source. Calls come from the whole dose curve; as a rule, active = well fitted cell-killing curve with a large enough effect; inconclusive = small, poorly fitted or top-dose-only effect; inactive = no such curve, though single readings can be large or run the other way.
I would appreciate it if you answered using one of these outcomes: active, inactive

# example entries with known answers
Dear all, I need the recorded test outcome for "O=C1CCc2cc(OCCCCc3nnnn3C3CCCCC3)ccc2N1" , thank you. inactive

Assay outcome for "CC(C)C[C@H](NC(=O)[C@@H](O)[C@H](N)Cc1ccccc1)C(=O)O" : what was it? active

Hi team, can someone confirm the assay call for "Nc1nc2[nH]cc(CCc3ccc(C(=O)N[C@@H](CCC(=O)O)C(=O)O)cc3)c2c(=O)[nH]1" ? inactive

Continuing:
Look up the recorded call for "CC[C@@H](C)[C@H](NC(=O)[C@H](CC1CCCCC1)NC(=O)c1ccno1)C(=O)N1CCC2(CCc3ccccc32)CC1" in this test. active

Assay outcome for "Cc1c(CN2CCN(C(=O)C(C)C)CC2)sc2c(N3CCOCC3)nc(-c3cnc(N)nc3)nc12" : what was it? active

Dear colleague, could you share the recorded outcome for "Cc1cnc(NC(=O)C2=C(O)c3ccccc3S(=O)(=O)N2C)s1" when you have a moment? inactive

What did this assay record as the result for "CC(C)(Sc1ccc(CCN(CCCCC2CCCCC2)C(=O)NC2CCCCC2)cc1)C(=O)O" ? inactive

What classification did CC(C)(C)NCC(O)c1ccc(O)c(CO)c1 (stereo not given) end up with in this test? inactive

Give the logged outcome of this assay for the following compound: "O=C(Nc1cccnc1)N1CCC(Cc2cccc(Oc3ccc(C(F)(F)F)cn3)c2)CC1" active

What was the test verdict on "Cn1cnc2c(F)c(Nc3ccc(Br)cc3Cl)c(C(=O)NOCCO)cc21" ? inactive

Please let me know the test result on file for "CCN(c1ccccc1)c1cc(NC)[n+](C)c(C)n1" . inactive

Hi, do you know how "COc1ccc(-c2c(-c3ccc(O)cc3O)n[nH]c2C)cc1" came out in this test? active

Returns: the outcome recorded for "CCCc1nc2c(C)cc(-c3nc4ccccc4n3C)cc2n1Cc1ccc(-c2ccccc2C(=O)O)cc1" in this assay. inactive

Returns: the outcome recorded for "O=C(Nc1nc2ccccc2n1CCN1CCOCC1)c1cccc([N+](=O)[O-])c1" in this assay. active

Identify the outcome logged in this assay for the compound shown: "CNC(=O)c1ccc(C)c(-n2c(C)cc(OCc3ccc(F)cc3F)c(Br)c2=O)c1" active

* * *

# assayProcedure: qHTS to identify inhibitors of the type 1 interferon - major histocompatibility complex class I in skeletal muscle: primary screen against the NCATS Mechanism Interrogation Plate v5.0 (MIPE) Libary (AID 1347411); note: nearly all actives have a fitted effect of over 65% in size
# reportedConditions: iHSKM cells + IFN-b, HiBiT-tagged MHC-I luminescence, 24 h; series mostly up to 45.8 µM
Inconclusive results are not listed. Calls of active or inactive are those of the source. Calls come from the whole dose curve; as a rule, active = well fitted inhibition curve with a large enough effect; inconclusive = small, poorly fitted or top-dose-only effect; inactive = no such curve, though single readings can be large or run the other way.
Entry note: the call must match one of active, inactive

Use the examples below as a reference point.
Could you please tell me the result logged for "CCN(c1ccccc1)c1cc(NC)[n+](C)c(C)n1" in this assay? inactive

Outcome logged for "Cn1cc(-c2ccc3nnc(C(F)(F)c4ccc5ncccc5c4)n3n2)cn1" in this assay: inactive

Tell me the recorded outcome of this test for "Cn1cnc2c(F)c(Nc3ccc(Br)cc3Cl)c(C(=O)NOCCO)cc21" . inactive

Given COc1ccc(COc2cc3oc(=O)c4cc(C(C)O)ccc4c3cc2OC)cc1 (stereo unspecified) , state the outcome it received in this test. inactive

Identify the outcome logged in this assay for the compound shown: "Cc1cccc(-c2[nH]c(C(C)(C)C)nc2-c2ccc3nccnc3c2)n1" inactive

Others:
What classification did "O=C(Nc1nc2ccccc2n1CCN1CCOCC1)c1cccc([N+](=O)[O-])c1" end up with in this test? inactive

Check the results log: what was the call for "Fc1ccc(Cl)cc1-c1nc(Nc2ccncc2)c2nccnc2n1" ? inactive

So what was the verdict on "c1ccc([C@H]2CN3CCSC3=N2)cc1" in this test? inactive

What outcome does the record of this test show for "CCCc1nc2c(C)cc(-c3nc4ccccc4n3C)cc2n1Cc1ccc(-c2ccccc2C(=O)O)cc1" ? inactive
